# ASSAY_PROCEDURE: Solubility in citrate buffer at different pH values (1M sodium hydroxide added), HPLC
# Assay type: physicochemical
# EXPERIMENTAL_CONTEXT: aqueous buffer, thermodynamic from solid, pH 3.23, 25° C., read-out: Solubility (free base equivalent)
# Description: To investigate the solubility of MN-029 di-hydrochloride in citrate buffer, the di-hydrochloride salt was added in multiple small portions to 10 milliliters of an aqueous solution of citric acid (3.87 mg/ml). When no more solid dissolved, that is, when saturation was achieved, the solution in the vial was allowed to equilibrate for approximately 24 hours with shaking at 25° C. […] The pH of the saturated solution was measured prior to filtration of undissolved solid. […]
Counter-ions that a name gives are not always drawn.
RESULT_TYPE: solubility (µg/mL)

> print(dat)
                                   molecule  result.type  test.value
1  COC(=O)Nc1nc2ccc(Sc3ccc(NC(=O)[C@H](C)N)cc3)cc2[nH]1 [MN-029 di-hydrochloride]   solubility          39

====

# ASSAY_PROCEDURE: Solubility as a function of pH in buffers without and with 15% HPBCD
# Assay type: physicochemical
# EXPERIMENTAL_CONTEXT: aqueous buffer with 15% HPBCD, pH 2, aqueous with cosolvent or surfactant or cyclodextrin, thermodynamic from solid, With 15% HPBCD, buffer pH 2.0, final pH 2.03; read-out: MN-029 Solubility
RESULT_TYPE: solubility at 5 days

> print(dat)
                                   compound    test.value
1  COC(=O)Nc1nc2ccc(Sc3ccc(NC(=O)[C@H](C)N)cc3)cc2[nH]1 [MN-029]  > 20.9 mg/mL

====

# ASSAY_PROCEDURE: Solubility in citrate buffer at different pH values (1M sodium hydroxide added), HPLC
# Type: physicochemical
# EXPERIMENTAL_CONTEXT: aqueous buffer, thermodynamic from solid, pH 5.57, 25° C., read-out: Solubility (free base equivalent)
Counter-ions that a name gives are not always drawn.
RESULT_TYPE: solubility

> print(dat)
                                   compound  test.value
1  COC(=O)Nc1nc2ccc(Sc3ccc(NC(=O)[C@H](C)N)cc3)cc2[nH]1 [MN-029 di-hydrochloride]   < 1 µg/mL

====

# ASSAY_PROCEDURE: Solubility as a function of pH in buffers without and with 15% HPBCD
# Type: physicochemical
# EXPERIMENTAL_CONTEXT: aqueous buffer with 15% HPBCD, pH 3, aqueous with cosolvent or surfactant or cyclodextrin, thermodynamic from solid, With 15% HPBCD, buffer pH 3.0, final pH 3.11; read-out: MN-029 Solubility
RESULT_TYPE: solubility at 5 days

> print(dat)
                            molecule.smiles    test.value
1  COC(=O)Nc1nc2ccc(Sc3ccc(NC(=O)[C@H](C)N)cc3)cc2[nH]1  > 24.4 mg/mL

====

# ASSAY_PROCEDURE: Solubility as a function of pH in buffers without and with 15% HPBCD
# Format: physicochemical
# EXPERIMENTAL_CONTEXT: aqueous buffer, pH 7, aqueous buffer, thermodynamic from solid, Without HPBCD, buffer pH 7.0, final pH 6.96; read-out: MN-029 Solubility
RESULT_TYPE: solubility at 5 days (µg/mL)

> print(dat)
                            molecule.smiles           result.type  test.value
1  COC(=O)Nc1nc2ccc(Sc3ccc(NC(=O)[C@H](C)N)cc3)cc2[nH]1  solubility at 5 days          26

====

# ASSAY_PROCEDURE: Solubility as a function of pH in buffers without and with 15% HPBCD
# Format: physicochemical
# EXPERIMENTAL_CONTEXT: aqueous buffer, pH 2, aqueous buffer, thermodynamic from solid, Without HPBCD, buffer pH 2.0, final pH 2.10, five days shaking; read-out: MN-029 Solubility
Where a name gives a salt, the structure may show the parent alone.
RESULT_TYPE: solubility at 5 days

> print(dat)
                                   compound           result.type   test.value
1  COC(=O)Nc1nc2ccc(Sc3ccc(NC(=O)[C@H](C)N)cc3)cc2[nH]1 [MN-029 di-hydrochloride]  solubility at 5 days  ~6000 µg/mL

====

# ASSAY_PROCEDURE: Solubility in citrate buffer at different pH values (1M sodium hydroxide added), HPLC
# Type: physicochemical
# EXPERIMENTAL_CONTEXT: aqueous buffer, thermodynamic from solid, pH 0.96, 25° C., read-out: Solubility (free base equivalent)
Where a name gives a salt, the structure may show the parent alone.
RESULT_TYPE: solubility (µg/mL)

> print(dat)
                                   compound  unit.annotation  test.value
1  COC(=O)Nc1nc2ccc(Sc3ccc(NC(=O)[C@H](C)N)cc3)cc2[nH]1 [MN-029 di-hydrochloride]            µg/mL        2900

Origin of values: patent US8633324B2
